- System: OVCAR3 (ovarian cancer)
- runDescription: In vitro cytotoxicity (MTS), OVCAR3
- Type: cell-based, human
- protocolConditions: Table 13; four days; LP = lacked potency
Rule: IC50 (ng Ab/mL) ± S.E.M., OVCAR3 below 10 ng Ab/mL gives condition met. Equal to or above 10 ng Ab/mL gives condition not met.

>>> category("ch28-mc0131 (conjugate) VH: EVQLVESGGGLVQPGRSLTLSCVASGFTFRDYGMTWIRQAPGKGLTWVAYISSGSNYIYYAEAVKGRFTISRDNAKNTLYLQMTSLRSEDTALYFCTRRGPFVLDAWGQGASVTVSS VL: DIQMTQSPSFLSASVGDRVTINCKASQSINRYLHWFQQKLGEAPKLLIYNANGLQTGIPSRFSGSGSGTDFTLTISSLQSEDVATYFCLQHNTWPDTFGAGTKLELK")
"condition met"
>>> category("ch28-vc0101: ch28 conjugated to vc0101 linker-payload (conjugate) VH: EVQLVESGGGLVQPGRSLTLSCVASGFTFRDYGMTWIRQAPGKGLTWVAYISSGSNYIYYAEAVKGRFTISRDNAKNTLYLQMTSLRSEDTALYFCTRRGPFVLDAWGQGASVTVSS VL: DIQMTQSPSFLSASVGDRVTINCKASQSINRYLHWFQQKLGEAPKLLIYNANGLQTGIPSRFSGSGSGTDFTLTISSLQSEDVATYFCLQHNTWPDTFGAGTKLELK")
"condition not met"
>>> category("ch28-vc6780 (conjugate) VH: EVQLVESGGGLVQPGRSLTLSCVASGFTFRDYGMTWIRQAPGKGLTWVAYISSGSNYIYYAEAVKGRFTISRDNAKNTLYLQMTSLRSEDTALYFCTRRGPFVLDAWGQGASVTVSS VL: DIQMTQSPSFLSASVGDRVTINCKASQSINRYLHWFQQKLGEAPKLLIYNANGLQTGIPSRFSGSGSGTDFTLTISSLQSEDVATYFCLQHNTWPDTFGAGTKLELK")
"condition not met"
>>> category("ch28-me0131 (conjugate) VH: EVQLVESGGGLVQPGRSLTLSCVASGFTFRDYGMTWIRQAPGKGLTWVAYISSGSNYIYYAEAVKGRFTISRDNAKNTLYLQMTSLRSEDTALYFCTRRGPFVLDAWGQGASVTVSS VL: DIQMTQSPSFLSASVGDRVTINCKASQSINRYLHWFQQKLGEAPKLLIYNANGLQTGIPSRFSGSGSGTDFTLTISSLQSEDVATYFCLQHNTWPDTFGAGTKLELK")
"condition met"
>>> category("ch28-mc3377 (conjugate) VH: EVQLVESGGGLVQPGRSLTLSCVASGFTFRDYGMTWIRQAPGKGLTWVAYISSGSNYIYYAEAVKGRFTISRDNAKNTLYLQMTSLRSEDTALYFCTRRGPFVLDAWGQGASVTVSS VL: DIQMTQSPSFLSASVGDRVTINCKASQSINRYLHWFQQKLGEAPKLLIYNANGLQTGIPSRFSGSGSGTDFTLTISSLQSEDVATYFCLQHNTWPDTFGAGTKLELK")
"condition not met"

Check if IC50 (ng Ab/mL) ± S.E.M., OVCAR3 falls below 10 ng Ab/mL for ch75-vc6780 (conjugate) VH: QVKLLQSGAALVKPGASVKMSCKASGYAFTDYWVTWVKQSHGKSLEWIGEISPNSGGTNFNEKFKGKATLTVDKSTSTAYMELSRLTSEDSAIYYCTRGEIRYNWFAYWGQGTLVTVSS VL: DIQMTQSPSSLSASVGDRVTITCKASQNVGNNIAWYQQKPGKAPKLLIYYASNRYTGVPSRFSGSGYGTDFTLTISSLQPEDFATYYCQRLYNSPFTFGGGTKVEIK .
condition not met

Check if IC50 (ng Ab/mL) ± S.E.M., OVCAR3 falls below 10 ng Ab/mL for ch75-mc0131 (conjugate) VH: QVKLLQSGAALVKPGASVKMSCKASGYAFTDYWVTWVKQSHGKSLEWIGEISPNSGGTNFNEKFKGKATLTVDKSTSTAYMELSRLTSEDSAIYYCTRGEIRYNWFAYWGQGTLVTVSS VL: DIQMTQSPSSLSASVGDRVTITCKASQNVGNNIAWYQQKPGKAPKLLIYYASNRYTGVPSRFSGSGYGTDFTLTISSLQPEDFATYYCQRLYNSPFTFGGGTKVEIK .
condition not met
